Below is a list of entries, each paired with its recorded GI50 value.
- System: OVCAR-4
- Experiment: NCI tumour cell line growth inhibition, 48 h
The source made the active and inactive calls. No stated cut-off is given here; in the data, active = GI50 up to about 1.1 µM and inactive = higher.

Structure Smiles: CN(C)c1ccc(/C=N/n2c(-c3ccccc3)nc3ccccc3c2=O)cc1
GI50: 47.9 µM (inactive)

Ask: Item CCc1nnc(-n2c(C)nc3cc(Cl)ccc3c2=O)s1 has what recorded GI50?
Result: 28.8 µM (inactive)

Ask: What GI50 value was documented for this compound, N=C(N)NC(=N)Nc1ccccc1.Sc1nc2ccccc2s1 ?
Result: > 100 µM (inactive)

Ask: # get_value(readout='GI50', item= Cc1cc(NC(=O)C(=O)Cc2nc3ccccc3s2)ccc1Cl )
Result: > 100 µM (inactive)

Ask: Request the reported GI50 associated with c1ccc(COc2ccc(CC3SCCCS3)cc2)cc1
Result: > 100 µM (inactive)

Ask: Which GI50 is listed for O=C1Nc2ccc(S(=O)(=O)NCCO)cc2/C1=C1/Nc2ccccc2C1=O ?
Result: 3.06 µM (inactive)

====

- Tested on: 786-0
- Experiment: NCI tumour cell line growth inhibition, 48 h
Active and inactive are the calls of the source. No stated cut-off is given here; in the data, active = GI50 up to about 1.1 µM and inactive = higher.
A correct response names exactly one class from active, inactive

Ask: # lookup: test call for Oc1ccc(/N=C/c2ccc(/C=N/c3ccc(O)cc3)cc2)cc1
Result: inactive

Ask: Could you check what this test reported for O=[N+]([O-])c1cccc(C2=NOC3CCCC23)c1 (centres undefined) ?
Result: inactive

Ask: Per the assay record, what outcome was assigned to CN(C)C(=O)c1nnsc1NN=O ?
Result: inactive

====

- Test system: Hs-578T
- Experiment: NCI tumour cell line growth inhibition, 48 h
Activity calls are given as the source filed them. No stated cut-off is given here; in the data, active = GI50 up to about 1.1 µM and inactive = higher.
Choose the fitting class; nothing outside TRUE (active), FALSE (inactive) is accepted.

Compound: Cc1ccc(C(=O)CC(Cl)=C(Cl)Cl)cc1
Answer Label: FALSE

Ask: Outcome? O=C(O)CCCc1ccc2c(c1)C(C(=O)O)CC2 (stereo not given)
Result: FALSE

Ask: Returns: the outcome recorded for COC(=O)CN(CC(=O)NCCCBr)C1CCCCC1N(CC(=O)OC)CC(=O)OC (stereo not given) in this assay.
Result: FALSE

====

- Tested on: HCC 2998
- Experiment: NCI tumour cell line growth inhibition, 48 h
Calls of active or inactive are those of the source. No stated cut-off is given here; in the data, active = GI50 up to about 1.1 µM and inactive = higher.
Endpoint Name: GI50

// worked examples, GI50 included
Compound: O=C(O)c1ccccc1C(=O)Nn1cnnc1
GI50: > 100 µM (inactive)
--
Compound: [N-]=[N+]=Nc1ccc(CNc2cc(=O)[nH]c(=O)[nH]2)cc1
GI50: > 100 µM (inactive)
--
Compound: CC1=CC(=O)c2c(C=O)c(O)c(O)c(C(C)C)c2C1=O
GI50: 29.3 µM (inactive)
--
Compound: N=C(N)NC(=N)Nc1ccccc1.Sc1nc2ccccc2s1
GI50: > 100 µM (inactive)
--
Compound: CC(C)OP(=O)(OC(C)C)C(Nc1cccc(C(F)(F)F)c1)c1ccccc1 (stereo unspecified)
GI50: 55.6 µM (inactive)

Ask: Reported GI50 for Cc1ccc(NC(=O)C2C(=O)N(c3ccc(C)c(C)c3)C(=O)C2N=N)cc1C (stereo unspecified) : what is it?
Result: > 100 µM (inactive)

Ask: Which value of GI50 has been reported for Cc1ccc(-c2nc3c(C(=O)NCCN(C)C)cccc3[nH]2)cc1 in the records?
Result: 14.3 µM (inactive)

Ask: Fill in the blank: the reported GI50 of CCOc1ccc(OCC(=O)O)c2c1CCCC2=O is ____.
Result: > 100 µM (inactive)

Ask: Requested read-out: GI50. Entry: Cc1cc(S(=O)(=O)Nc2nc3ccsc3c(=O)n2N)c(S)cc1Cl
Result: > 100 µM (inactive)

Ask: Need GI50, item O=C(Cc1ccccc1)Nn1c(-c2ccccc2)nc2ccccc2c1=O
Result: > 100 µM (inactive)

Ask: Request the reported GI50 associated with S=C(Nc1ccccc1)Nc1ccccc1SC(/C=C/NNC1=NN=C(c2ccccc2)C(c2ccccc2)N1)c1ccccc1 (stereo unspecified)
Result: 26.4 µM (inactive)

====

Recorded measurements of GI50, one per entry
- System: HCT-116
- Experiment: NCI tumour cell line growth inhibition, 48 h
The source made the active and inactive calls. Cut-off read from the data, not from the text of the source: active = GI50 up to about 1.1 µM and inactive = higher.

Below: 2 molecules and their reported GI50.
Molecule: CCN(CCC#N)C(=O)Nc1ccccc1
GI50: > 100 µM (inactive)
--
Molecule: O=C1/C(=C\c2cccc(Oc3ccccc3)c2)S(=O)(=O)C(c2ccccc2)N1c1ccc(Cl)cc1 (stereo unspecified)
GI50: 13.9 µM (inactive)

Ask: Quick check: GI50 of O=C(Nc1nc(C23CC4CC(CC(C4)C2)C3)cs1)c1cc2ccc(O)cc2oc1=O ?
Result: 10.1 µM (inactive)

Ask: Would you kindly share the measured GI50 for COc1ccc2[nH]c3c(C)c4cc[n+](C)cc4c(C)c3c2c1 ?
Result: 2 µM (inactive)

Ask: Look at this molecule and give its reported GI50. Cn1c(=O)c2c(nc3n(CCCCl)c(=O)ccn23)n(C)c1=O
Result: > 100 µM (inactive)

====

- Test system: MDA-N
- Experiment: NCI tumour cell line growth inhibition, 48 h
Active and inactive are the calls of the source. Rule as the data show it: active = GI50 up to about 1.1 µM and inactive = higher.
Give your call using only these classes: active, inactive

The following compounds have reported results that may help.
Compound: O=C(CCc1cc(O)cc(O)c1)NCCc1cc(O)cc(O)c1
Answer Label: inactive

Compound: N=C(N)N/N=C(\c1ccc(Cl)cc1)C1CC1
Answer Label: inactive

Compound: C[N+](C)(C)CC(=O)N/N=C(/CC1OC(=O)c2ccccc21)c1ccccc1O (stereo unspecified)
Answer Label: inactive

Compound: CC#CC#C/C=C1/O[C@]2(CCC(OC(=O)CC(C)C)CO2)[C@@H]2O[C@H]12 (stereo partly specified)
Answer Label: inactive

Compound: O=C1/C(=N/CCc2cc(Br)c(O)c(Br)c2)C=C(O)c2cccnc21
Answer Label: active

Compound: Cc1ccc([N+](=O)[O-])cc1S(=O)(=O)Nc1ccc(C2=NN(C(=O)c3ccccc3)C(c3cccs3)C2)cc1 (stereo unspecified)
Answer Label: inactive

Compound: O=C1C(c2c(O)[nH]c3ccccc23)=Nc2ccc(Br)cc21
Answer Label: inactive

Compound: CC(C)=CCC[C@@H](C)C1=C(O)C(=O)C(C)=C(Nc2ccccc2F)C1=O
Answer Label: inactive

Ask: Could you check what this test reported for CN(C)CCNC(=O)c1cc([N+](=O)[O-])cc2c1Oc1ccccc1O2 ?
Result: inactive

Ask: # outcome recorded in this test, key = CCOC(=O)c1cc(C2CCN(Cc3ccccc3)C2=O)c(C(=O)/C=C(/C)N)[nH]1 (stereo unspecified)
Result: inactive

Ask: Test call, this compound: CCOC(=O)Cn1c2ccc(Br)cc2c2nc3ccccc3nc21
Result: inactive

Ask: Hi, sorry to bother you, what did the test record for Oc1c(Br)c(-c2ccccc2)nc2ccccc12 ?
Result: inactive

====

- Tested on: EKVX
- Experiment: NCI tumour cell line growth inhibition, 48 h
The source made the active and inactive calls. Rule as the data show it: active = GI50 up to about 1.1 µM and inactive = higher.
The reply should be one of these categories: 1 for active, -1 for inactive

Sample answers from the record:
Compound: Cc1ccc(-c2nc3c(C(=O)NCCN(C)C)cccc3[nH]2)cc1
Answer Label: -1

Compound: O=C1OCC/C1=C/c1ccc(/N=N/c2c(O)ccc3ccccc23)cc1
Answer Label: -1

Ask: Could you kindly confirm the outcome this assay logged for O=C1CSC2(CC(/C=C/c3ccccc3Br)=NN2c2cccc(S(=O)(=O)O)c2)N1c1nc2ccccc2s1 (stereo not drawn) ?
Result: -1

Ask: Per the records of this test, what outcome belongs to N#CC1=C(N)N(/N=C/c2ccccc2)C(c2ccccc2)C1(C#N)C#N (stereo not drawn) ?
Result: -1

Ask: What call does the record list for CCc1nnc(-n2c(C)nc3cc(Cl)ccc3c2=O)s1 ?
Result: -1

Ask: Lab log entry: CC1(C)CCC2=C(O1)c1ccccc1/C(=N/c1ccc([N+](=O)[O-])cc1)C2=O — outcome as called in the assay?
Result: -1

Ask: Which result was noted for this compound in the test: O=C(CCN1CC2CCC(CC2)C1)c1cccs1
Result: -1

Ask: Short answer needed: outcome of this test for C/C=C/CP(=O)(c1ccccc1)c1ccccc1 ?
Result: -1

Ask: // outcome(item) with item = CN(C)CCC(C(=O)C(C)(C)C)c1ccccn1 (stereo not drawn)
Result: -1

Ask: What outcome does the record of this test show for OCCOc1ccccc2cccc1-2 ?
Result: -1

Ask: Field: outcome | Entry: O=C1/C(=C\c2cccc(Oc3ccccc3)c2)S(=O)(=O)C(c2ccccc2)N1c1ccc(Cl)cc1 (stereo not drawn)
Result: -1

Ask: What did this assay record as the result for Nc1ccc(Oc2ccc(C3(c4ccc(Oc5ccc(N)cc5)cc4)C4CC5C6CC7CC5C3C(C7)C6C4)cc2)cc1 ?
Result: -1

Ask: Which outcome was assigned to O=C1/C(=N/CCc2cc(Br)c(O)c(Br)c2)C=C(O)c2cccnc21 in this test?
Result: -1

// provenance: ChEMBL document CHEMBL1201862
